B1: POU domain, class 3, transcription factor 2, residues 356 to 411; numbered along this chain, P20265 (parent)
chain: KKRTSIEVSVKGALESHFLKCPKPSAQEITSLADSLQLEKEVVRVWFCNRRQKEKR

variants of: B1; experiment: abundance fitness (aPCA) (normalised: wild type 0, dead -1); higher = more abundant; growth selection in yeast, the domain comes from the species named; conditions: Homo sapiens
Mark NOT MET for abundance fitness values under -0.3, and MET for everything at or above.

| VARIANT DESCRIPTION | CLASS |
| --- | --- |
| V8W | MET |
| I6A | MET |
| A26T | MET |

Then there is this variant:
Query: Kindly determine if abundance fitness recorded for E15A is above or exactly -0.3.
Response: NOT MET
